target.system: CMPK2 (Homo sapiens)
readout.label: IC50 (µM)
Value expressed in µM; do not type the unit.

Provide value of IC50 for this record tested with CMPK2 (Homo sapiens): COc1c2ccc(-c3ccccc3)oc-2cc(=O)c1C [compound 73, Dracohodin perochlorate]
1.34

====

target.system: CMPK2 (Homo sapiens, UniProt Q5EBM0)
Sequence (Q5EBM0 22-449): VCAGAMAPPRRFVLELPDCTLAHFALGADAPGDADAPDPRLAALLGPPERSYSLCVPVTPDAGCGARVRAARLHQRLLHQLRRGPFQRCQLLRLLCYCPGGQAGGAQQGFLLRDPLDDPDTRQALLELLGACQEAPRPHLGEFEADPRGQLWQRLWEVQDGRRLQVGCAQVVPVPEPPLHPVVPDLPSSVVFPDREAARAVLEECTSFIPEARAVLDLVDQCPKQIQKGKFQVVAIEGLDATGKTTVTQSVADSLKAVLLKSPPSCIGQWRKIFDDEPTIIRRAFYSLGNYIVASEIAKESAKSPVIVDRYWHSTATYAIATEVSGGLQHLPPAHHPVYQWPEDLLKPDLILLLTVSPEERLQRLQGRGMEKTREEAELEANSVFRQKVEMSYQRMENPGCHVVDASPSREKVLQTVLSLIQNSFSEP
procedure.details: Ultrafiltration-affinity mass spectrometry screening (FC, CMPK2 vs BSA)
Format: binding
Design: the N‐terminus was truncated by 22 amino acids; 6xHis (C); made in house; host or cells: FreeStyle 293-F cells (pTT5 vector)
assay.context: positive ion mode; ratio of MS response CMPK2 vs BSA
Overview of reported FC Positive across a group of compounds:
The answer should be written as a number, with no unit following it.

COc1c2ccc(-c3ccccc3)oc-2cc(=O)c1C [compound 73, Dracohodin perochlorate]
4.32
O=c1ccn([C@H]2C[C@H](O)[C@@H](COP(=O)(O)O)O2)c(=O)[nH]1 [dUMP, reference compound]
1.17
COc1ccc2ccc(=O)oc2c1 [compound 792, 7-methoxy coumarin]
3.13

# evaluate next
Given the entry O=c1c(O[C@@H]2O[C@H](CO)[C@H](O)[C@H](O)[C@H]2O)c(-c2ccc(O)c(O)c2)oc2cc(O)cc(O)c12 [compound 400, Hyperoside] , report its measured FC Positive.
4.74
